# measurement target: AKR1A1 isolated from rat kidneys (Rattus norvegicus, UniProt P51635)
# Construct: aldehyde reductase (AKR1A1) isolated from rat kidneys
# Sequence (P51635 1-325): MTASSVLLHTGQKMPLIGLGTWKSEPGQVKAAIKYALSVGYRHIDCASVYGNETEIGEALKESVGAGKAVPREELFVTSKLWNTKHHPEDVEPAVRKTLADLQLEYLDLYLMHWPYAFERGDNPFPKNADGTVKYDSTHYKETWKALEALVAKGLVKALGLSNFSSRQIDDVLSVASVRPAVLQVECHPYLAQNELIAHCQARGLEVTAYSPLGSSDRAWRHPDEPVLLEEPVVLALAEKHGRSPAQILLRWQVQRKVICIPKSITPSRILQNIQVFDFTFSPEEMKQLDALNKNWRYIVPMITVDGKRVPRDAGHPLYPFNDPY
# procedure details: AKR1A1 (aldehyde reductase) inhibition, NADPH oxidation with sodium D-glucuronate as substrate
# assay setup: rat kidney enzyme, pH 7.2, 37 °C
# IC50 annotations
reported metric: IC50 (µM)

- O=C(O)Cn1c(=O)c(Oc2cc(O)cc(O)c2)nc2cccnc21 [4j]: 20.8
- COc1ccc(Oc2nc3cccnc3n(CC(=O)O)c2=O)cc1 [4b]: 19.8
- COc1cc(OC)cc(Oc2nc3cccnc3n(CC(=O)O)c2=O)c1 [4d]: 21.5
- COc1ccc(Oc2nc3cccnc3n(CC(=O)O)c2=O)cc1OC [4c]: 17.6
- COc1ccc(Oc2nc3cccnc3n(CC(=O)O)c2=O)cc1O [4g]: 19.3

* * *

# measurement target: AKR1B1 isolated from rat lenses (Rattus norvegicus)
# Construct: AKR1B1 isolated from rat lenses; from tissue; host or cells: rat lenses
# procedure details: AKR1B1 (aldose reductase) inhibition, NADPH oxidation with D,L-glyceraldehyde as substrate
# Type: biochemical
# assay setup: rat lens enzyme, pH 6.2, 30 °C
# log10 of IC50 annotations
reported metric: log10 of IC50 (log10 of the value in nM)

- O=C(O)Cn1c(=O)c(Oc2cc(O)cc(O)c2)nc2cccnc21: 1.94
- O=C(O)Cn1c(=O)c(Oc2cc(O)cc(O)c2)nc2cc(Cl)cnc21: 1.36
- COc1cc(O)cc(Oc2nc3cccnc3n(CC(=O)O)c2=O)c1: 3.45
- O=C(O)Cn1c(=O)c(Oc2ccc(O)c(O)c2)nc2cccnc21: 2.48
- COc1c(O)cc(Oc2nc3cccnc3n(CC(=O)O)c2=O)cc1O: 3.37
- COc1cc(Oc2nc3cccnc3n(CC(=O)O)c2=O)cc(OC)c1OC: 3.88
- O=C(O)Cn1c(=O)c(Oc2cc(O)cc(O)c2)nc2cc(Br)cnc21: 1.75
- COc1ccc(Oc2nc3cccnc3n(CC(=O)O)c2=O)cc1OC: 3.75
- COc1ccc(Oc2nc3cccnc3n(CC(=O)O)c2=O)cc1: 3.43
- COc1ccc(Oc2nc3cccnc3n(CC(=O)O)c2=O)cc1O: 3.40
- COc1cc(Oc2nc3cccnc3n(CC(=O)O)c2=O)cc(O)c1OC: 3.66
- O=C(O)Cn1c(=O)c(Oc2ccccc2)nc2cccnc21: 3.93
- COc1cc(OC)cc(Oc2nc3cccnc3n(CC(=O)O)c2=O)c1: 3.63
- O=C(O)Cn1c(=O)c(Oc2cc(O)c(O)c(O)c2)nc2cccnc21: 2.93
- O=C(O)Cn1c(=O)c(Oc2ccc(O)cc2)nc2cccnc21: 2.08

* * *

reported metric: melting point

* COc1ccc(Oc2nc3cccnc3n(CC(=O)O)c2=O)cc1 [4b] | 234 to 242 °C
* COc1cc(Oc2nc3cccnc3n(CC(=O)O)c2=O)cc(O)c1OC [4m] | 237 to 244 °C
* COc1cc(OC)cc(Oc2nc3cccnc3n(CC(=O)O)c2=O)c1 [4d] | 241 to 247 °C
* COc1ccc(Oc2nc3cccnc3n(CC(=O)O)c2=O)cc1OC [4c] | 241 to 251 °C
* O=C(O)Cn1c(=O)c(Oc2cc(O)cc(O)c2)nc2cc(Br)cnc21 [4l] | 233 to 235 °C
* O=C(O)Cn1c(=O)c(Oc2ccccc2)nc2cccnc21 [4a] | 239 to 244 °C
* O=C(O)Cn1c(=O)c(Oc2cc(O)cc(O)c2)nc2cc(Cl)cnc21 [4k] | 232 to 236 °C
* O=C(O)Cn1c(=O)c(Oc2cc(O)cc(O)c2)nc2cccnc21 [4j] | 231 to 237 °C
* O=C(O)Cn1c(=O)c(Oc2cc(O)c(O)c(O)c2)nc2cccnc21 [4o] | 241 to 246 °C
* O=C(O)Cn1c(=O)c(Oc2ccc(O)cc2)nc2cccnc21 [4f] | 231 to 239 °C

* * *

# procedure details: DPPH radical scavenging assay
# assay setup: compound 100 μM; methanol; 517 nm
# DPPH/sca% 100 μM annotations
reported metric: DPPH/sca% 100 μM (%)

- Cc1c(C)c2c(c(C)c1O)CCC(C)(C(=O)O)O2 (stereo not drawn) [Trolox, reference compound]: 96.7
- COc1ccc(Oc2nc3cccnc3n(CC(=O)O)c2=O)cc1: 18.9
- O=C(O)Cn1c(=O)c(Oc2cc(O)c(O)c(O)c2)nc2cccnc21: 88.5
- COc1cc(Oc2nc3cccnc3n(CC(=O)O)c2=O)cc(O)c1OC: 56.9
- COc1ccc(Oc2nc3cccnc3n(CC(=O)O)c2=O)cc1O: 54.8
- COc1ccc(Oc2nc3cccnc3n(CC(=O)O)c2=O)cc1OC: 21.2
- O=C(O)Cn1c(=O)c(Oc2ccccc2)nc2cccnc21: 6.9
- O=C(O)Cn1c(=O)c(Oc2cc(O)cc(O)c2)nc2cc(Cl)cnc21: 94.8
- COc1cc(OC)cc(Oc2nc3cccnc3n(CC(=O)O)c2=O)c1: 25.9
- O=C(O)Cn1c(=O)c(Oc2cc(O)cc(O)c2)nc2cccnc21: 95.0
- O=C(O)Cn1c(=O)c(Oc2ccc(O)c(O)c2)nc2cccnc21: 74.6
- COc1cc(Oc2nc3cccnc3n(CC(=O)O)c2=O)cc(OC)c1OC: 17.8
- COc1cc(O)cc(Oc2nc3cccnc3n(CC(=O)O)c2=O)c1: 78.4
- COc1c(O)cc(Oc2nc3cccnc3n(CC(=O)O)c2=O)cc1O: 65.7
- O=C(O)Cn1c(=O)c(Oc2ccc(O)cc2)nc2cccnc21: 37.7

* * *

# measurement target: AKR1A1 isolated from rat kidneys (Rattus norvegicus, UniProt P51635)
# Construct: aldehyde reductase (AKR1A1) isolated from rat kidneys
# Sequence (P51635 1-325): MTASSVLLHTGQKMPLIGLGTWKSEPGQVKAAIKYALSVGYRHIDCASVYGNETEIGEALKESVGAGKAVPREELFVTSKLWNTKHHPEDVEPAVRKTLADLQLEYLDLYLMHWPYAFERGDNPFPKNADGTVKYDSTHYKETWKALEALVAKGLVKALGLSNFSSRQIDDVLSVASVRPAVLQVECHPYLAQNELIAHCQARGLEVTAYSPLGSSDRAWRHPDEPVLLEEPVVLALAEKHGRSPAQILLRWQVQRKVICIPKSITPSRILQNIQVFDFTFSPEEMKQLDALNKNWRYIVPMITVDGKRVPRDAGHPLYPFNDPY
# procedure details: AKR1A1 (aldehyde reductase) inhibition, NADPH oxidation with sodium D-glucuronate as substrate
# assay setup: rat kidney enzyme, pH 7.2, 37 °C
pIC50: −log10 of the molar value.
# pIC50 annotations
reported metric: pIC50

• O=C(O)Cn1c(=O)c(Oc2cc(O)cc(O)c2)nc2cc(Br)cnc21 = 4.70
• CC(/C=C1\SC(=S)N(CC(=O)O)C1=O)=C\c1ccccc1 [Epalrestat, reference compound] = 4.25
• COc1cc(Oc2nc3cccnc3n(CC(=O)O)c2=O)cc(OC)c1OC = 4.68
• O=C(O)Cn1c(=O)c(Oc2ccc(O)c(O)c2)nc2cccnc21 = 4.77
• O=C(O)Cn1c(=O)c(Oc2ccc(O)cc2)nc2cccnc21 = 4.80
• O=C(O)Cn1c(=O)c(Oc2cc(O)cc(O)c2)nc2cc(Cl)cnc21 = 4.74
• COc1c(O)cc(Oc2nc3cccnc3n(CC(=O)O)c2=O)cc1O = 4.59
• O=C(O)Cn1c(=O)c(Oc2ccccc2)nc2cccnc21 = 4.57
• COc1cc(Oc2nc3cccnc3n(CC(=O)O)c2=O)cc(O)c1OC = 4.50
• O=C(O)Cn1c(=O)c(Oc2cc(O)c(O)c(O)c2)nc2cccnc21 = 4.66
• COc1cc(O)cc(Oc2nc3cccnc3n(CC(=O)O)c2=O)c1 = 4.82
